Tested on: COLO 205 colon
Protocol description: NCI tumour cell line growth inhibition, 48 h
Recorded metric: TGI

[
  {
    "Molecule": "CCOC1CC(=O)c2c(Br)sc(Br)c21 (stereo unspecified)",
    "Recorded metric": "TGI",
    "Measured value": "38.4 µM"
  },
  {
    "Molecule": "CN1CCN(CCc2cccc(C(=O)c3cnn(-c4ccc(F)cc4)c3N)c2)CC1",
    "Recorded metric": "TGI",
    "Measured value": "> 25 µM"
  },
  {
    "Molecule": "CC1=NCCc2c1[nH]c1cc(O)ccc21",
    "Recorded metric": "TGI",
    "Measured value": "> 100 µM"
  },
  {
    "Molecule": "CC(=O)OC(C)c1cc2c(s1)C(=O)c1sccc1C2=O (stereo unspecified)",
    "Recorded metric": "TGI",
    "Measured value": "3.59 µM"
  },
  {
    "Molecule": "CN(C)c1nc(=NCc2ccncc2)ss1",
    "Recorded metric": "TGI",
    "Measured value": "> 100 µM"
  },
  {
    "Molecule": "COC(=O)NN(C(=O)OC)c1c(-c2ccccc2)nc(SC)n1N",
    "Recorded metric": "TGI",
    "Measured value": "> 100 µM"
  },
  {
    "Molecule": "COc1ccc(N[C@H](CSc2ccc(C)cc2)c2ccc(F)cc2)cc1",
    "Recorded metric": "TGI",
    "Measured value": "> 100 µM"
  },
  {
    "Molecule": "CC(=O)NNc1nc(C)c(C(=O)NNC(=O)C(=O)Nc2ccccc2C#N)s1",
    "Recorded metric": "TGI",
    "Measured value": "> 100 µM"
  },
  {
    "Molecule": "CC/C=C\\C=C/C(=O)N/C=C/CC1Cc2cccc(O)c2C(=O)O1 (stereo unspecified)",
    "Recorded metric": "TGI",
    "Measured value": "41.2 µM"
  },
  {
    "Molecule": "C=C(Cl)/C(=C\\Cl)CCC(Br)C(C)C (stereo unspecified)",
    "Recorded metric": "TGI",
    "Measured value": "> 100 µM"
  },
  {
    "Molecule": "COc1ccc(Nc2nc3ccc(C(F)(F)F)cc3nc2C(=O)O)cc1OC",
    "Recorded metric": "TGI",
    "Measured value": "> 100 µM"
  }
]
